This collection of values is drawn from ChEMBL document CHEMBL1137662.

System: Vaccinia virus
Assay Comment: Antiviral activity against Vaccinia virus Copenhagen in HFF cells assessed as reduction of viral replication after 3 days
Format: functional, organism-based
Recorded Conditions: Orthopoxvirus vaccinia, 72 h
pEC50: −log10 of the molar value.
Quantity Measured: pEC50

1. Nc1ncnc2c1ncn2C[C@@H](CO)OCP(=O)(O)O :: 5.57
2. Nc1ccn(C[C@@H](CO)OCP(=O)(O)O)c(=O)n1.O.O [CIDOFOVIR] :: 4.59
3. CCCCCCCCCCCCCCCCOCCCOP(=O)(O)CO[C@H](CO)Cn1ccc(N)nc1=O [BRINCIDOFOVIR] :: 6.10
4. CCCCCCCCCCCCCCCCOCCCOP(=O)(O)CO[C@H](CO)Cn1cnc2c(N)ncnc21 :: 8.00
5. CCCCCCCCCCCCCCCCCCOCCOP(=O)(O)CO[C@H](CO)Cn1cnc2c(N)ncnc21 :: 8.00

----------
Assay Comment: Cmax in Swiss Webster mouse at 10 mg/kg, ip
Assay type: ADME, organism-based
Parameters: dose 10 mg/kg, route intraperitoneal
Recorded Conditions: in vivo
Quantity Measured: Cmax (nM)

1. CCCCCCCCCCCCCCCCOCCCOP(=O)(O)CO[C@H](CO)Cn1cnc2c(N)ncnc21 :: 2200

----------
System: Vaccinia virus
Assay Comment: Antiviral activity against Vaccinia virus WR in HFF cells assessed as reduction of viral replication after 3 days
Type: functional, organism-based
Recorded Conditions: Orthopoxvirus vaccinia, 72 h
pEC50: −log10 of the molar value.
Quantity Measured: pEC50

1. CCCCCCCCCCCCCCCCCCOCCOP(=O)(O)CO[C@H](CO)Cn1cnc2c(N)ncnc21 :: 7.00
2. CCCCCCCCCCCCCCCCOCCCOP(=O)(O)CO[C@H](CO)Cn1cnc2c(N)ncnc21 :: 6.52
3. CCCCCCCCCCCCCCCCOCCCOP(=O)(O)CO[C@H](CO)Cn1ccc(N)nc1=O :: 5.96
4. Nc1ncnc2c1ncn2C[C@@H](CO)OCP(=O)(O)O :: 5.19

----------
// reported selectivity ratio for each item listed
Assay Comment: Selectivity index, ratio of CC50 for HFF cells to EC50 for Vaccinia virus WR
Assay type: toxicity, cell-based
Recorded Conditions: human, read-out: Ratio CC50/EC50
Quantity Measured: selectivity ratio

1) CCCCCCCCCCCCCCCCOCCCOP(=O)(O)CO[C@H](CO)Cn1ccc(N)nc1=O [BRINCIDOFOVIR] :: 28
2) CCCCCCCCCCCCCCCCCCOCCOP(=O)(O)CO[C@H](CO)Cn1cnc2c(N)ncnc21 :: 15
3) CCCCCCCCCCCCCCCCOCCCOP(=O)(O)CO[C@H](CO)Cn1cnc2c(N)ncnc21 :: 32

----------
Tested on: Mus musculus
Assay Comment: Plasma concentration in Swiss Webster mouse at 10 mg/kg, ip after 24 hrs by liquid scintillation counting
Assay type: ADME, organism-based
Parameters: dose 10 mg/kg, route intraperitoneal
Recorded Conditions: in vivo
Quantity Measured: concentration (nM)

1) CCCCCCCCCCCCCCCCOCCCOP(=O)(O)CO[C@H](CO)Cn1cnc2c(N)ncnc21 :: 80

----------
Test system: Mus musculus
Assay Comment: Plasma concentration in Swiss Webster mouse at 10 mg/kg, po after 24 hrs by liquid scintillation counting
Format: ADME, organism-based
Set-up: dose 10 mg/kg, route oral
Recorded Conditions: in vivo
Quantity Measured: concentration (nM)

1. CCCCCCCCCCCCCCCCOCCCOP(=O)(O)CO[C@H](CO)Cn1cnc2c(N)ncnc21 :: 30

----------
Assay Comment: Cmax in Swiss Webster mouse at 10 mg/kg, po
Assay type: ADME, organism-based
Parameters: dose 10 mg/kg, route oral
Recorded Conditions: in vivo
Quantity Measured: Cmax (nM)

1. CCCCCCCCCCCCCCCCOCCCOP(=O)(O)CO[C@H](CO)Cn1cnc2c(N)ncnc21 :: 1100
